# tgt: T1, recombinant cynoPD-1 (construct not stated) (cynomolgus monkey, UniProt B0LAJ3 25-170)
# T1 construct: not shown: probably His as elsewhere
# assay.comment: ELISA
reported.metric: EC50 (nM)
Give bare numbers, in nM.

Consider the binder shown here: XVT458-z2-m3 (antibody, V domains shown, IgG format; also called z2_XVT458m3) VH: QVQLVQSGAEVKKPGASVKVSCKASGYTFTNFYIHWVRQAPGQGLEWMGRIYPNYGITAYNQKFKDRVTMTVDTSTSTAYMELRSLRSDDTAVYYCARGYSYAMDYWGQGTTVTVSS VL: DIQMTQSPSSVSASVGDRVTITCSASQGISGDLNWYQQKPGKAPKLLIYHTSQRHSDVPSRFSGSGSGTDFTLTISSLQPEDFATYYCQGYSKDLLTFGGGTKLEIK What is its recorded EC50? 0.094
